test system: PC-3 prostate; assay: NCI tumour cell line growth inhibition, 48 h
Collected TGI values appear next to each entry.

Recorded results for 2 compounds are shown here.
{"columns": ["compound", "reportedMeasurement"],
 "data": [
  ["O=C(Nc1ccccc1)c1cc(S(=O)(=O)Nc2nc3ncccc3[nH]2)c(SSc2cc(Cl)c(C(=O)Nc3ccccc3)cc2S(=O)(=O)Nc2nc3ncccc3[nH]2)cc1Cl", "> 100 µM"],
  ["COc1cc2c(/C=C3/C(=O)Nc4ccc(O)cc43)c(Cl)[nH]c2cc1C", "22.2 µM"]
]}

Query block: Item "CCc1c2c(nc3ccc(OC(=O)NCc4ccc(B5OC(C)(C)C(C)(C)O5)cc4)cc13)-c1cc3c(c(=O)n1C2)COC(=O)[C@]3(O)CC" has what recorded TGI?
Result block: > 100 µM

Query block: Item CCCCCCCCCCCCCCCCCCNc1ccn(C2OC(CO)C(OP(=O)(O)OCC(COP(=O)(O)OCC3OC(n4cc(F)c(NCCCCCCCCCCCCCCCCCC)nc4=O)CC3O)OC(=O)CCCCCCCCCCCCCCC)C2O)c(=O)n1 (centres undefined) has what recorded TGI?
Result block: > 100 µM

Query block: Item CCCCCC(/C=C/C1CCC(=O)C1)OCOCCOC (centres undefined) has what recorded TGI?
Result block: > 100 µM

Query block: Item "CCN(CC)CCOc1nc2c3ccc(Cl)cc3nn2c2ccccc12" has what recorded TGI?
Result block: 9.94 µM

Query block: Item CCOc1ccc(N=NC2C(=O)N(C(=O)CC(=O)Nc3ccc(C)cc3)N=C2C)cc1 (centres undefined) has what recorded TGI?
Result block: > 100 µM

Query block: Item Cc1cc(C)c(C2CC(O)C(CO)O2)cc1C (centres undefined) has what recorded TGI?
Result block: > 100 µM

Query block: Item "CCCCCCCCCCCC1=NCCN1" has what recorded TGI?
Result block: 44.1 µM
